Measured melting point accompanies every entry in the list below.
# details: a range is the spread between reports

Record excerpt, results attached:
INSERT INTO measurements (test_smiles, result) VALUES
  ('N#Cc1c(F)c(F)c(F)c(F)c1F', '2 to 2.4 °C'),
  ('O=C(O)CBr', '47 to 50 °C'),
  ('Clc1cncc(Cl)n1', '54 to 56.5 °C'),
  ('O=C(O)c1cccc(Cl)c1[N+](=O)[O-]', '237 to 238 °C');

**Q:** Looking for the measured melting point of c1cncnc1 , can you help?
**A:** 21 to 22 °C

**Q:** Looking for the measured melting point of Oc1cccc(O)c1O , can you help?
**A:** 132 to 134 °C

**Q:** Looking for the measured melting point of CC(=O)CC(=O)OC(C)C , can you help?
**A:** -27.3 to -27 °C

**Q:** Looking for the measured melting point of Oc1cc2ccccc2cc1O , can you help?
**A:** 162 to 164 °C

---

# details: a range is the spread between reports
reported property: melting point

Record excerpt, results attached:
INSERT INTO measurements (compound, reported_property, result) VALUES
  ('N#CCc1ccc(O)cc1', 'melting point', '69 to 71 °C'),
  ('CCCCCCCCC(C)C', 'melting point', '-49 to -48.9 °C'),
  ('Cc1ccc(Br)cc1', 'melting point', '25 to 28.5 °C'),
  ('CCOC(=O)C(=O)Nc1ccccc1', 'melting point', '65.5 to 67 °C'),
  ('CC(=O)Nc1cccc(Cl)c1', 'melting point', '77 to 80 °C'),
  ('CCC1CCCC1', 'melting point', '-138 °C');

From here, focus on the item given below.
**Q:** Looking for the measured melting point of C=CCCCCCCCCCC , can you help?
**A:** -37 to -35 °C

---

# details: a range is the spread between reports
Measured melting point accompanies every entry in the list below.

INSERT INTO measurements (molecule, reported_property, result) VALUES
  ('COc1ccc(C=CC(=O)c2ccccc2)cc1', 'melting point', '75 to 79 °C');

**Q:** Looking for the measured melting point of CC#N , can you help?
**A:** -48 to -43.8 °C

**Q:** Looking for the measured melting point of Cc1cc(O)ccc1Cl , can you help?
**A:** 66 to 67 °C

**Q:** Looking for the measured melting point of O=Cc1ccccc1F , can you help?
**A:** -45 to -44.5 °C

**Q:** Looking for the measured melting point of O=C(C=Cc1cccc([N+](=O)[O-])c1)c1ccccc1 , can you help?
**A:** 146 °C

**Q:** Looking for the measured melting point of Cc1cc(N)ccc1Br , can you help?
**A:** 79 to 81 °C

**Q:** Looking for the measured melting point of Cc1cc(C)c(Br)c(C)c1 , can you help?
**A:** -1 to 2 °C

**Q:** Looking for the measured melting point of N#Cc1cccc(N)c1 , can you help?
**A:** 52 to 54.3 °C

**Q:** Looking for the measured melting point of CCCCCCCCCCO , can you help?
**A:** 6 to 7 °C

**Q:** Looking for the measured melting point of CCC(=O)C(CC(C)N(C)C)(c1ccccc1)c1ccccc1 (stereo not drawn) , can you help?
**A:** 98.8 to 102 °C
